# Tested on: OVCAR-3
# Test Method Notes: NCI tumour cell line growth inhibition, 48 h
Active and inactive are the calls of the source. Rule as the data show it: active = GI50 up to about 1.1 µM and inactive = higher.
Measured Metric: GI50

Please supply the value of reported GI50 for the item N#C/C(=N/Nc1[nH]cnc1C(N)=O)C(=O)Nc1ccccc1
5.41 µM (inactive)

Please report the measured GI50 for O=c1[nH]c2c3ccccc3ccc2c2cc3c(cc12)OCO3
> 100 µM (inactive)

Quote GI50 reported for Cc1c(NC(=O)CSC(=S)N(C)C)c(=O)n(-c2ccccc2)n1C please.
> 100 µM (inactive)

Please supply the value of reported GI50 for the item CC(C)c1ccccc1NC(=O)C(=O)Cc1nc2ccccc2s1
> 100 µM (inactive)

Please list GI50 recorded for the molecule COc1ccc2[nH]c(C(=O)N3CC(CCl)c4ccc(N)cc43)cc2c1 (centres undefined)
0.27 µM (active)

Determine from records and report GI50 for CC1=C(C(=O)Nc2ccc([N+](=O)[O-])cc2)C(c2ccccc2F)C(C(=O)Nc2ccc([N+](=O)[O-])cc2)=C(C)N1
8.32 µM (inactive)

Give the reported value of GI50 for this record: Cc1cc(NS(=O)(=O)c2ccc(/N=N/c3c(Nc4ccccc4)nn(-c4ccc(S(=O)(=O)Nc5ccncn5)cc4)c3C)cc2)no1
> 100 µM (inactive)

Report GI50, nothing else, for this molecule: CCCC(=O)Nc1cc(/C=C/C(=O)N2CC(CCl)c3c2cc(OCc2ccccc2)c2[nH]cc(C)c32)n(C)c1 (centres undefined)
0.127 µM (active)

Dear colleague, please send me the reported GI50 for O=C1/C(=C/c2ccccc2O)N=C(c2ccccc2)N1c1nc2ccccc2s1 when you can.
7.43 µM (inactive)

The measured values listed here are drawn from ChEMBL document CHEMBL1201862.
